Target: Vasopressin V1b receptor (Homo sapiens)
Sequence (P47901 whole entry): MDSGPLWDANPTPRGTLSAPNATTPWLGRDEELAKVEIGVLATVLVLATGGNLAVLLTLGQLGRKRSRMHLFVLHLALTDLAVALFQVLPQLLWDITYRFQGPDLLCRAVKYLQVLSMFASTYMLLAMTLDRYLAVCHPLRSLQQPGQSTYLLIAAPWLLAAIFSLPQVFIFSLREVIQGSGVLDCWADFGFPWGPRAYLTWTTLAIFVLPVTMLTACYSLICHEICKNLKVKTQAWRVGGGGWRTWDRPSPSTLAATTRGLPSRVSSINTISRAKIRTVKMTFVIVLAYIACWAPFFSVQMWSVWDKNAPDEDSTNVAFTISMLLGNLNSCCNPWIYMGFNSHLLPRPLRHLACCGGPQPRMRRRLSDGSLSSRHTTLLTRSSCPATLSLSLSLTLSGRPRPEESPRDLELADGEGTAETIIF
Test: Displacement of [3H]vasopressin from human vasopressin V1b receptor
The reader will find reported Ki values listed item by item below.

CC(C)C[C@@H]1C(=O)N[C@H](C2Cc3ccccc3C2)C(=O)N1[C@@H](C(=O)NC(C)C)c1ccc(N(C)C)cc1 = > 50.1 µM
CC(C)C[C@@H]1C(=O)N[C@H](C2Cc3ccccc3C2)C(=O)N1[C@@H](C(=O)NC(C)C)c1ccc(F)cc1F = > 6.31 µM

Task: Give Ki; test system Vasopressin V1b receptor (Homo sapiens); compound CC(C)C[C@@H]1C(=O)N[C@H](C2Cc3ccccc3C2)C(=O)N1[C@@H](C(=O)NC(C)C)c1ccc(F)cc1
Output: > 6.31 µM
